Target: T1, 4H626-bN
T1 chain: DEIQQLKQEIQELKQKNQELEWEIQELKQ
Test: two-hybrid library CCNG1;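 note: natural log of median RNA to DNA barcode read ratio; higher means stronger binding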
experimentalEndpoint: interaction score

Use these answered entries as a reference point.
                                     binder  recordedmeasurement
0  DKNQQLEQKNQELEQEIQELEWKIQELKQ [4H3462-bN]                0.696
1  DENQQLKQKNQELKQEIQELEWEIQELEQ [4H1985-bN]               -0.889
2  DKNQQLKQKIQELKQENQELEWKIQELKQ [4H3926-bN]               -0.388
3  DKNQQLEQEIQELKQKIQELEWKNQELEQ [4H3175-bN]               -0.521
4  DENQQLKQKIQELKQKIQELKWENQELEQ [4H1899-bN]               -0.642
5  DENQQLKQEIQELEQEIQELEWKNQELKQ [4H1544-bN]                -1.03
6  DEIQQLKQEIQELKQEIQELKWKNQELEQ [4H591-bN]               -0.933

P = DEIQQLKQEIQELKQKNQELEWEIQELKQ [4H626-bN]
Q = DKNQQLEQENQELKQKIQELEWEIQELKQ [4H3298-bN]
R = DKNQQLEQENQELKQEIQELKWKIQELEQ [4H3277-bN]
S = DKNQQLKQEIQELEQENQELKWKIQELEQ [4H3613-bN]
In: Ordering: ascending interaction score. Put the labels in the requested order and write them down.
Out: S, Q, R, P
